Provenance of the data: ChEMBL document CHEMBL4689842

- Tested on: HEK-293T
- Method summary: Multiplex assay against HEK293T;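 note: share of the cells with healthy nuclei that show this phenotype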
- Format: toxicity, cell-based
- Test parameters: human, 24 h, 1 µM, compound concentration 1 uM, replicate 1
Quantity kind: Population Tubulin-Different-Phenotype (%)
Give a bare numeral; the unit % is implied.

Ask | Request body: readout Population Tubulin-Different-Phenotype (%), system HEK-293T, query "C[C@@H](Oc1cc(-n2cnc3ccc(CN4CCN(C)CC4)cc32)sc1C(N)=O)c1ccccc1C(F)(F)F" . Return the value.
Reply | 96

Ask | Now try CN1C(=O)[C@@H](NC(=O)c2cc3ccccc3[nH]2)N=C(c2ccccc2)c2ccccc21 [DEVAZEPIDE] .
Reply | 52

Ask | Now try "CC(C)c1cc(Nc2nc(N3CCC[C@H](N)C3)ncc2C(N)=O)cc(C(C)C)n1" .
Reply | 91

Ask | Now try "Cc1c(Nc2ccc(S(=O)(=O)N3CCN(C)CC3)cc2F)nc2ccc(-c3cnn(C4CC4)c3)cn2c1=O" .
Reply | 10

Ask | Now try CCCCCNC(=N)N/N=C/c1c[nH]c2ccc(OC)cc12.O=C(O)/C=C\C(=O)O [TEGASEROD MALEATE] .
Reply | 46

Ask | Now try "CC(C)[C@H](CO)Nc1nc(Nc2cccc(Cl)c2)c2ncn(C(C)C)c2n1" .
Reply | 53
